molecular target: sigma-1 receptor (Homo sapiens); construct: incubing Jurkat cell membranes ([…] protein per tube) with [^3H](+)-pentazocine; endogenous in cells; host or cells: Jurkat cell membranes; assay: sigma-1 receptor binding assay ([3H](+)-pentazocine displacement, Jurkat cell membranes); details: tested compound 10 nM, [3H](+)-pentazocine 15 nM, 37° C., 2 hours
Sequence (Q99720 whole entry): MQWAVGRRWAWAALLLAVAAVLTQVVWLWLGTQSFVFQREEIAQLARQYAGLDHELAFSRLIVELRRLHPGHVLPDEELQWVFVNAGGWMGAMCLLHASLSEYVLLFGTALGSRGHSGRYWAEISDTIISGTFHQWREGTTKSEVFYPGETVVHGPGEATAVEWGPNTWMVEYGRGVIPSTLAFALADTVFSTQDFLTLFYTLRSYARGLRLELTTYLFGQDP
Counter-ions that a name gives are not always drawn.
# inhibition at 0.01 µM per record follows
The answer is to be given in %; state only the numeric part.

Worked examples follow.
1) O=c1c(N2CCN(c3ccccc3)CC2)ccnn1CC1CCN(Cc2ccccc2)CC1 [cpd 41, hydrochloride]
5.2
2) O=c1c(-c2ccccc2)ccnn1CC1CCN(CC(O)c2ccc(F)cc2)CC1 (stereo not shown) [cpd 23, hydrochloride]
1.3
3) CC(C1CCN(Cc2ccccc2)CC1)n1nccc(-c2ccccc2)c1=O (stereo not shown) [cpd 28]
37

Now let's try a different one.
-- ask // lookup inhibition at 0.01 µM for O=c1c(CCc2ccccc2)ccnn1CC1CCN(Cc2ccccc2)CC1 [cpd 36]
-- reply 44.2
